- Tested on: NCI-H226
- MEASUREMENT DESCRIPTION: NCI tumour cell line growth inhibition, 48 h
Activity calls are given as the source filed them. Cut-off read from the data, not from the text of the source: active = GI50 up to about 1.1 µM and inactive = higher.
// GI50 lookup, one value per entry

MOLECULE	REPORTED MEASUREMENT
Cc1coc2c1CC1(C)C(CCC(O)C1C)C2 (centres undefined)	> 100 µM (inactive)

Input: Lab note: need GI50 with NCI-H226 for entry Nc1nc2[nH]cnc2c(=S)[nH]1 , please look it up.
Output: 4.41 µM (inactive)

Input: Request: COc1ccc(NC(C)=O)cc1N1C(=O)/C(=C\c2cc(OC)c(OC)c(OC)c2)SC1c1ccccc1 (centres undefined)
Output: 50.9 µM (inactive)

* * *

- System: Malme-3M
- MEASUREMENT DESCRIPTION: NCI tumour cell line growth inhibition, 48 h
The source made the active and inactive calls. Cut-off read from the data, not from the text of the source: active = GI50 up to about 1.1 µM and inactive = higher.
MEASURED METRIC: GI50

Known GI50 results, listed for orientation:
COMPOUND	REPORTED MEASUREMENT
Cc1cc(NC(=S)Nc2ccccc2)c(NC(=S)Nc2ccccc2)cc1C	37.8 µM (inactive)
CN(C)c1n/c(=N/c2ncn[nH]2)ss1	> 100 µM (inactive)
CC(=O)OC1COC(N2c3ccccc3[C@@H]3CCc4c([nH]c5ccccc45)[C@@H]32)C(OC(C)=O)C1OC(C)=O.CC(=O)OC1COC(N2c3ccccc3[C@H]3CCc4c([nH]c5ccccc45)[C@H]32)C(OC(C)=O)C1OC(C)=O (some centres undefined)	> 100 µM (inactive)

Next up:
Input: Can you look up the measured GI50 of CC(C)Sc1nncc(/C(N)=N/O)n1 for me?
Output: > 100 µM (inactive)

* * *

- System: HOP-92
- MEASUREMENT DESCRIPTION: NCI tumour cell line growth inhibition, 48 h
Activity calls are given as the source filed them. No stated cut-off is given here; in the data, active = GI50 up to about 1.1 µM and inactive = higher.
Select the correct class. Options are active, inactive and nothing else.

Answered examples (5):
COMPOUND	TESTED SYSTEM	CLASS ASSIGNMENT
CCN1c2ccccc2-n2c(C)nnc2-c2c(-c3ccccc3)n[nH]c21	HOP-92	inactive
CCOC(=O)C1=C(C)N(CC(C)C)C2(O)C(OC)CC(=O)C3C(=O)N(c4ccccc4)C(=O)C132 (stereo not drawn)	HOP-92	inactive
C/C(=C/CC[C@](C)(OC1OC(CO)C(O)C(O)C1O)[C@H]1CC[C@]2(C)[C@@H]1CC[C@@H]1[C@@]3(C)CC[C@H](O)C(C)(C)[C@@H]3C[C@H](O)[C@]12CO)CO (stereo partly drawn)	HOP-92	inactive
N=c1c2ccccc2nc2oc3ccccc3n12	HOP-92	inactive
CC1C(=O)C(C)C(c2ccco2)N(N=O)C1c1ccco1 (stereo not drawn)	HOP-92	inactive

Input: Check the results log: what was the call for C=CCSC1=N/C(=C\c2ccc(Cl)cc2)C(=O)N1CC=C ?
Output: inactive

Input: Request: CSc1nc2c(c(O)c(C)c(=O)n2C2OC(COC(C)=O)C(OC(C)=O)C(OC(C)=O)C2OC(C)=O)c(=O)n1C (stereo not drawn)
Output: inactive

Input: Request: CC(=O)O[C@H]1CSC[C@@H](OC(C)=O)C1[N+](=O)[O-] (stereo partly drawn)
Output: inactive

Input: Request: CC(NC(=O)OC(C)(C)C)C(=O)NC1CCCC1 (stereo not drawn)
Output: inactive

Input: Request: NS(=O)(=O)c1ccc(N2C(=O)C(=O)N(c3ccccc3)C2=S)cc1
Output: inactive

Input: Request: CC1=C(C(=O)Nc2ccccc2C)C(c2ccc(C3C(C(=O)Nc4ccccc4C)=CNC=C3C(=O)Nc3ccccc3C)cc2)C(C(=O)Nc2ccccc2C)=C(C)N1
Output: inactive

Input: Request: CC1=C[C@@H](C)C[C@]2(C)CC[C@H](O2)[C@]23CC[C@](CO)(C[C@H](O2)[C@@H]2O[C@@](C)(CC2=O)[C@@H](O)[C@H]2CC[C@@]4(CCC[C@@H](O4)[C@H](C)C(=O)O[C@H]4C[C@H]([C@]5(O)OCC[C@H](C)[C@@H]5O)O[C@H]4C=C1)O2)O3
Output: active

Input: Request: Nc1nc2[nH]cnc2c(=S)[nH]1
Output: active
